# test.details: NCI Yeast Anticancer Drug Screen. Data for the mec2-1 strain (AID 157)
# condition.parameters: S. cerevisiae mec2-1 strain, at 33.0 µM, hits give high values
This is part of a sample that, as a whole, favours compounds with a hit. Of some 79,000 tested, about 15% had one in any assay.
Classify by measured growth inhibition: true if it is equal to or exceeds 30%, false if it is smaller.

O=C1c2ccccc2C(=O)N1CCCC(=O)n1cc(F)c(=O)[nH]c1=O : true
NC1=NNC2(C(N)=N1)c1ccccc1-c1ccccc12 : false
Nc1nc2ccc(NCc3ccc(C(=O)NC(CCC(=O)O)C(=O)O)cc3)cc2c(=O)[nH]1 (stereo not given) : true
COc1cccc2c1C(=O)c1c(O)c3c(c(O)c1C2=O)C[C@@](O)(C(C)=O)C[C@@H]3OC1CC(OC(C)=O)C(OC(C)=O)C(C)O1 (stereo not given in full) : false
Oc1ccc2c(c1)C(O)CCCC2 (stereo not given) : false
CC1OC(O[C@H]2/C=C/C=C/C=C/C=C/C=C/C=C/C=C/[C@H](C)[C@@H](O)[C@@H](C)[C@H](C)OC(=O)C[C@H](O)C[C@H](O)CC[C@@H](O)[C@H](O)C[C@H](O)C[C@]3(O)C[C@H](O)[C@@H](C(=O)O)[C@H](C2)O3)C(O)C(N)C1O (stereo not given in full) : true
O=C1Nc2ccc(Br)cc2C1=Nc1ccc2c(c1)OCO2 : false
COC(=O)C1=C(C(=O)OC)C(C(=O)OC)C(C(=O)OC)C(C(=O)OC)(C(=O)OC)C(C(=O)OC)=C1C(=O)OC (stereo not given) : false
COc1cc(C2c3cc4c(cc3OC(OC(C)=O)C2C)OCO4)cc(OC)c1OC (stereo not given) : false
Cc1ccc(N=Nc2ccc(O)c(=O)cc2)cc1 : true
C/C(=N\Nc1ccc([N+](=O)[O-])cc1[N+](=O)[O-])c1sc(-n2nc(-c3ccccc3)cc2-c2ccccc2)nc1C : false
CCOc1ccccc1N=Cc1c2ccccc2cc2ccccc12 : true
Oc1ccc2ccccc2c1CCc1c(O)ccc2ccccc12 : true
Cc1cc(C)c(NC(=S)NC(=O)c2ccccc2)cc1C : false
Nc1nc(N)c2nc(CNc3ccc(C(=O)NC(CCC(=O)O)C(=O)O)cc3F)cnc2n1 (stereo not given) : true
COC(=O)Nc1cn2ccc(C(Cl)=C(Cl)Cl)cc2n1 : false
CCc1c(Cl)c(C)cc(O)c1Cl : false
COC(=O)C1(C)CCc2c(ccc3ccccc23)C1=O (stereo not given) : false
Cc1cc(C(C)(C)C)c(OCCCN2CCOCC2)c(C(C)(C)C)c1 : false
O=C(O)CNC(=S)Nc1ccccc1 : true

----------
# test.details: NCI Yeast Anticancer Drug Screen. Data for the mgt1 strain (AID 153)
# condition.parameters: S. cerevisiae mgt1 mutant growth inhibition; at 3.7 µM; hits give high values
The panel holds about 79,000 compounds, 15% with a hit somewhere; the sample as a whole holds those more often.
measure: growth inhibition (%)

O=c1nc2n(Cc3ccccc3)c3ccccc3nc-2c(=O)[nH]1 : 5
COc1cc(/C=N/Nc2nnc3c4ccccc4c4ncccc4c3n2)cc(OC)c1OC : 1
O=C(Oc1ccc2c(c1)CN(Cc1ccccc1)CO2)c1ccccc1 : 0
CCN(CC)CCNc1ccc2ncn3c4cc(OC)c(OC)c(=O)c4c(O)c1c23 : 2
CCc1c(Cl)c(C)cc(O)c1Cl : 5
CN(C)c1ccc2c(SCC(=O)OCC(=O)[C@@]3(O)CC[C@H]4[C@@H]5CCC6=CC(=O)C=C[C@]6(C)[C@H]5C(=O)C[C@@]43C)c3ccc(N(C)C)cc3nc2c1 : -37
CCN(CC)CCNc1ccc([N+](=O)[O-])c2nc3ccccc3c(N)c12 : -18
CCC1(OC(=O)CN2CCN(CCO)CC2)C(=O)OCc2c1cc1n(c2=O)Cc2cc3ccccc3nc2-1 (stereo not given) : -20
CCN(CC)CCN(C)CCc1ccc(Br)cc1 : 10
Cc1ccc(N=Nc2ccc(O)c(=O)cc2)cc1 : 29
